target: Luciferin 4-monooxygenase (Photinus pyralis) (UniProt P08659); assay: qHTS profiling assay for firefly luciferase inhibitor/activator using purifed enzyme and Km concentrations of substrates (counterscreen for miR-21 project); conditions: purified FLuc, luminescence inhibition; series mostly up to 57.5 µM; also: nearly all actives have a fitted effect of over 55% in size
Sequence (P08659 whole entry, looked up): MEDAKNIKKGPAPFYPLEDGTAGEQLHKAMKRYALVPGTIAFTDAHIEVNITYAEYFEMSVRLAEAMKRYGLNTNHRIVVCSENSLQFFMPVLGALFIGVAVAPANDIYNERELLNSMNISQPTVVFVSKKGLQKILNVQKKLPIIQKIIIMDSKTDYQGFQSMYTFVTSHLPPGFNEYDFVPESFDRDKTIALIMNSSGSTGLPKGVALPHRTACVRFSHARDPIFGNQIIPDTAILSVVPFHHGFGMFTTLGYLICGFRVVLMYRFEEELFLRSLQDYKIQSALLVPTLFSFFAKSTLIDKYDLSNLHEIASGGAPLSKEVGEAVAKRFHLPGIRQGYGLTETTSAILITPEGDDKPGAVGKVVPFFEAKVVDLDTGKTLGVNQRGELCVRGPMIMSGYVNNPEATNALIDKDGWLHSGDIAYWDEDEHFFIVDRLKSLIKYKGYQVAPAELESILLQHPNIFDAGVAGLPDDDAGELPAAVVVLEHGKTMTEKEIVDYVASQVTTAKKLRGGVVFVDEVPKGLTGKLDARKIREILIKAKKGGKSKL
In all, about 360,000 compounds went through this assay and about 25,000 (6.9%) were called active. About 9% were inconclusive and are not listed. Calls follow the shape of the dose curve; as a rule, active = well fitted inhibition curve with a large enough effect; inconclusive = small, poorly fitted or top-dose-only effect; inactive = flat fitted curve, though single readings scatter. The list comes from a sample in which actives are over-represented; it also holds close analogues and randomly drawn compounds.
Respond using exactly one of the listed classes: yes (1) = active, no (0) = inactive

{"columns": ["MOLECULE", "QUALITATIVE_LABEL"],
 "data": [
  ["CN(C)c1nc(N)nc(Cn2nnc(-c3ccc(C(F)(F)F)cc3)n2)n1", "no (0)"]
]}

Query :: State the result this test recorded for CCN1CCN(Cc2c(O)ccc3oc(C)c(C(=O)Nc4ccc(C)cc4C)c23)CC1 .
Result :: no (0)

Query :: State the result this test recorded for COc1ccccc1NC(=O)C1=C(C)Nc2nc(SCC(=O)c3ccc(C)cc3)nn2C1c1ccccc1C (configuration not stated) .
Result :: no (0)

Query :: State the result this test recorded for O=C(c1[nH]ncc1-c1ccc(Cl)cc1)C1CO1 (configuration not stated) .
Result :: no (0)

Query :: State the result this test recorded for CCC1CCCCN1S(=O)(=O)Cc1ccccc1Cl (configuration not stated) .
Result :: no (0)

Query :: State the result this test recorded for CC(C)N(Cc1nnc(-c2ccc(Cl)cc2)o1)C(=O)C1=COCCO1 .
Result :: no (0)

Query :: State the result this test recorded for O=C(c1nnc(-c2ccc(Cl)cc2)o1)C1CCCC1 .
Result :: yes (1)

Query :: State the result this test recorded for COC(=O)Cc1cc(=O)n(-c2nc3ccccc3s2)[nH]1 .
Result :: yes (1)

Query :: State the result this test recorded for CCCN(CCC)C(=O)Cn1c(=O)n(-c2ccc(Cl)cc2)c(=O)c2c3c(sc21)CCCCC3 .
Result :: no (0)

Query :: State the result this test recorded for COc1ccc(-c2nnn(Cc3nc(N)nc(N4CCCCC4)n3)n2)cc1 .
Result :: no (0)

Query :: State the result this test recorded for COC(=O)CN1C(=O)CSc2ccc(S(=O)(=O)Nc3cc(C)ccc3C)cc21 .
Result :: no (0)

Query :: State the result this test recorded for CCOc1ccccc1C(=O)Nc1ccc2c(c1)N(C)C(=O)c1ccccc1S2 .
Result :: no (0)

Query :: State the result this test recorded for Cc1csc2nc(COC(=O)c3ccc(NC(=O)COc4ccccc4F)cc3)cc(=O)n12 .
Result :: no (0)

Query :: State the result this test recorded for O=C1CCC(C(=O)N2CCN(c3ccccc3Cl)CC2)CN1CC1CCCCC1 (configuration not stated) .
Result :: no (0)

Query :: State the result this test recorded for CCCNS(=O)(=O)c1ccc(CCC(=O)NCc2cccnc2)cc1 .
Result :: no (0)

Query :: State the result this test recorded for COC(=O)CC1=NN(c2nc(C)cc(C)n2)C(=O)C1 .
Result :: no (0)

====

Molecular target: Luciferin 4-monooxygenase (Photinus pyralis)
Assay: qHTS profiling assay for firefly luciferase inhibitor/activator using purifed enzyme and Km concentrations of substrates (counterscreen for miR-21 project); also: nearly all actives have a fitted effect of over 55% in size
Conditions: purified FLuc, luminescence inhibition; series mostly up to 57.5 µM
Text: MLPCN Grant: 1 R21 NS059478-01 (miR-21 grant) Assay Provider: NCGC NCGC Assay Overview: Firefly (Photinus pyralis) luciferase is one of the most commonly used transcriptional reporters for a number of reasons. […] Although light produced in a bioluminescence reaction is of lower intensity than that produced during fluorescence emission, this is offset by little to no background light inherent to luminescent assays. […]
Out of some 360,000 compounds screened, about 25,000 (6.9%) were called active. Not shown: some 9% with an inconclusive outcome. Calls come from the whole dose curve; as a rule, active = well fitted inhibition curve with a large enough effect; inconclusive = small, poorly fitted or top-dose-only effect; inactive = flat fitted curve, though single readings scatter. What follows is part of a selection rich in actives, with near analogues and random picks from the rest.
Respond using exactly one of the listed classes: active, inactive

Answered cases to consult:
{"columns": ["COMPOUND", "QUALITATIVE_LABEL"],
 "data": [
  ["COc1ccc(S(=O)(=O)N2CCCCC2)cc1C(=O)NC1CCS(=O)(=O)C1 (stereo not given)", "inactive"],
  ["CCOc1ccc(NC(=O)COc2ccc(C(=O)N3CCC(C(N)=O)CC3)cc2OC)cc1", "inactive"],
  ["CCc1ccc(-c2cc(C(=O)NCc3ccco3)c3ccccc3n2)s1", "active"],
  ["CCOc1ccc(CNC(=O)c2cc(-c3ccc(Cl)s3)nc3ccccc23)cc1", "inactive"]
]}

Query :: State the result this test recorded for O=C(NCc1ccco1)c1nc(-c2ccccc2)n(-c2ccccc2)n1 .
Result :: inactive

====

target: Luciferin 4-monooxygenase (Photinus pyralis); test: qHTS profiling assay for firefly luciferase inhibitor/activator using purifed enzyme and Km concentrations of substrates (counterscreen for miR-21 project); settings: purified FLuc, luminescence inhibition; series mostly up to 57.5 µM; also: nearly all actives have a fitted effect of over 55% in size
Screen size: about 360,000 compounds; about 25,000 (6.9%) were called active. Inconclusive results (about 9%) are left out. Calls follow the shape of the dose curve; as a rule, active = well fitted inhibition curve with a large enough effect; inconclusive = small, poorly fitted or top-dose-only effect; inactive = flat fitted curve, though single readings scatter. Shown is part of a subset that was picked to be rich in actives.
Respond using exactly one of the listed classes: active, inactive

{"columns": ["MOLECULE", "QUALITATIVE_LABEL"],
 "data": [
  ["Cc1[nH]c2ccccc2c1SCC(=O)Nc1nccs1", "active"]
]}

Query :: State the result this test recorded for C/C(=C\c1ccccc1)C1NC(=O)c2c(sc3c2CCCC3)N1 (stereo not drawn) .
Result :: inactive

Query :: State the result this test recorded for Cc1cc2nc(SCCN3CCOCC3)[nH]c2cc1C .
Result :: active

Query :: State the result this test recorded for Cc1csc(SCC(=O)N(c2ccccc2)C(C)C)n1 .
Result :: inactive

Query :: State the result this test recorded for Cc1ccc(S(=O)(=O)N2CCC(C(=O)OCC(=O)N3CC(=O)Nc4ccccc43)CC2)cc1 .
Result :: inactive

Query :: State the result this test recorded for CCn1c(SCC(=O)Nc2nccs2)nnc1-c1ccco1 .
Result :: inactive

Query :: State the result this test recorded for CSc1ccc(C2C(C(=O)Nc3ccccc3)=C(C)Nc3nc4ccccc4n32)cc1 (stereo not drawn) .
Result :: inactive

Query :: State the result this test recorded for CCC(=O)c1ccc(OCC(=O)Nc2ccc(N3CCCCC3)cc2)cc1 .
Result :: inactive

Query :: State the result this test recorded for Cc1ccc(CNC(=O)CSC2=Nc3ccccc3C3=NC(C)C(=O)N23)cc1 (stereo not drawn) .
Result :: inactive

Query :: State the result this test recorded for CCc1ccc2oc(-c3ccc(N)cc3)nc2c1 .
Result :: active

Query :: State the result this test recorded for O=C(NC(Cc1ccccc1)C(=O)N1CCCC(C(F)(F)F)C1)c1ccccc1 (stereo not drawn) .
Result :: inactive

Query :: State the result this test recorded for CCN(CCCNC(=O)Cn1ncc2c([nH]c3ccccc32)c1=O)c1cccc(C)c1 .
Result :: inactive

====

biological target: Luciferin 4-monooxygenase (Photinus pyralis) (UniProt P08659); experiment: qHTS profiling assay for firefly luciferase inhibitor/activator using purifed enzyme and Km concentrations of substrates (counterscreen for miR-21 project); details: purified FLuc, luminescence inhibition; series mostly up to 57.5 µM; also: nearly all actives have a fitted effect of over 55% in size
In all, about 360,000 compounds went through this assay and about 25,000 (6.9%) were called active. Roughly 9% stayed inconclusive and do not appear here. Calls follow the shape of the dose curve; as a rule, active = well fitted inhibition curve with a large enough effect; inconclusive = small, poorly fitted or top-dose-only effect; inactive = flat fitted curve, though single readings scatter. The sample holds actives, similar compounds and a random draw of the others, so the mix is not that of the screen.
Respond using exactly one of the listed classes: yes for active, no for inactive

Answered cases to consult:
{"columns": ["MOLECULE", "STUDY_SYSTEM", "QUALITATIVE_LABEL"],
 "data": [
  ["O=C(NNC(=O)c1cc2c(s1)CCCC2)c1ccccc1", "Luciferin 4-monooxygenase (Photinus pyralis) (UniProt P08659)", "yes"],
  ["COc1ccc(C(CNC(=O)c2cc3c(s2)CCCC3)N2CCOCC2)cc1 (stereo unspecified)", "Luciferin 4-monooxygenase (Photinus pyralis) (UniProt P08659)", "no"],
  ["O=C(c1cc2c(s1)CCC2)N1CCN(c2ccccc2)CC1", "Luciferin 4-monooxygenase (Photinus pyralis) (UniProt P08659)", "no"]
]}

Query :: State the result this test recorded for CCC(=O)c1c[nH]c(C(=O)NCC2CCCO2)c1 (stereo unspecified) .
Result :: no

Query :: State the result this test recorded for O=C(NNC(=O)C1CCC1)c1ccccc1 .
Result :: no

Query :: State the result this test recorded for O=C(NCCCN1CCOCC1)c1cc2c(s1)CCC2 .
Result :: no

====

target: Luciferin 4-monooxygenase (Photinus pyralis); assay: qHTS profiling assay for firefly luciferase inhibitor/activator using purifed enzyme and Km concentrations of substrates (counterscreen for miR-21 project); details: purified FLuc, luminescence inhibition; series mostly up to 57.5 µM; also: nearly all actives have a fitted effect of over 55% in size; also: potency is read from the fitted curve at half-maximal effect
The whole screen tested about 360,000 compounds, of which about 25,000 (6.9%) were called active. Roughly 9% stayed inconclusive and do not appear here. Many of the other results were omitted from the sample, so actives are more common in it than they were.
ATTRIBUTE_MEASURED: Potency

// known answers, use as guide
{"columns": ["COMPOUND", "RESULT"],
 "data": [
  ["O=C(COC(=O)CNC(=O)C1CCCCC1)NCc1ccccc1", "inactive"],
  ["COc1ccc2c(c1)c(N1CCCC1=O)c(C(=O)Nc1ccccc1C(F)(F)F)n2C", "inactive"],
  ["CC(C)C(=O)Nc1ccc2c(c1)oc1ccccc12", "2.69 µM (active)"],
  ["CCOc1ccc2nc(/N=C/c3nc(-c4ccccc4)oc3O)sc2c1", "inactive"],
  ["COC(=O)CCc1sc(Nc2ccc(Br)cc2)nc1-c1ccc(OC)cc1", "inactive"],
  ["CCOC(=O)CN1C(C(=O)c2ccccc2)=C(OC(=O)C(C)(C)C)c2ccccc2S1(=O)=O", "inactive"],
  ["CC(=O)c1ccc(N2CCN(CC(O)c3ccccc3)CC2)cc1 (configuration not stated)", "inactive"],
  ["O=C(Nn1cnc2ccccc2c1=O)c1ccccc1", "inactive"]
]}

Query :: Item under review: O=C(Nc1cccnc1)c1noc2c1CCCCC2 . Reported Potency?
Result :: 7.57 µM (active)

Query :: Item under review: Cc1ccc2[nH]c3c(=O)n(CC(=O)NC(C)C)ncc3c2c1 . Reported Potency?
Result :: inactive

Query :: Item under review: COC(=O)c1ccccc1NS(=O)(=O)c1ccc2c(c1)CCCN2C(C)=O . Reported Potency?
Result :: inactive

Query :: Item under review: Cc1ccc(OC(=O)c2c(C)nn(-c3ccccc3)c2C)cc1 . Reported Potency?
Result :: 13.5 µM (active)

Query :: Item under review: O=C1CSC2(C(=O)N(Cc3ccccc3)c3ccccc32)N1c1cccc(F)c1 (configuration not stated) . Reported Potency?
Result :: inactive

Query :: Item under review: CC1CN(C(=S)Nc2ccc(Br)cc2Cl)CC(C)O1 (configuration not stated) . Reported Potency?
Result :: inactive

Query :: Item under review: CCCc1nc2c(C)cc(-c3nc4ccccc4n3C)cc2n1Cc1ccc(-c2ccccc2C(=O)O)cc1 . Reported Potency?
Result :: 13.5 µM (active)

Query :: Item under review: COc1ccc(Nc2nc(-c3ccccc3)cs2)cc1 . Reported Potency?
Result :: 0.601 µM (active)

Query :: Item under review: COc1ccc(-c2cc(C(=O)NCCCn3ccnc3)no2)cc1 . Reported Potency?
Result :: inactive

Query :: Item under review: Cc1ccc(-c2nc(C#N)c(NCCCn3ccnc3)o2)cc1 . Reported Potency?
Result :: 21.3 µM (active)

Query :: Item under review: CCOCCCn1c(NN)nc2ccccc2c1=O . Reported Potency?
Result :: inactive

Query :: Item under review: COc1ccc(-c2csc(Nc3ccc(O)cc3)n2)cc1 . Reported Potency?
Result :: 1.35 µM (active)

Query :: Item under review: O=c1c2ccccc2nc(N/N=C/c2ccccc2)n1O . Reported Potency?
Result :: 1.51 µM (active)
